- Tested on: HeLa Kyoto;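 further: HeLa Kyoto cells arrested at G1/S by double thymidine block, proteins quantified by TMT10plex mass spectrometry in mild NP-40 versus SDS extracts, three biological replicates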
- EXPERIMENT: solubility in G1/S (NP-40 vs SDS abundance) (log2 ratio); higher = more soluble
- CONDITION: cell cycle stage: G1/S
OUTCOME MEASURE: solubility in G1/S (log2)

MEPAEQPSELVSAEGRNRKAVLCQRCGSRVLQPGTALFSRRQLFLPSMRKKPALSDGSNPDGDLLQEHWLVEDMFIFENVGFTKDVGNIKFLVCADCEIGPIGWHCLDDKNSFYVALERVSHE [RABIF]; 0.225
MATLVELPDSVLLEIFSYLPVRDRIRISRVCHRWKRLVDDRWLWRHVDLTLYTMRPKVMWHLLRRYMASRLHSLRMGGYLFSGSQAPQLSPALLRALGQKCPNLKRLCLHVADLSMVPITSLPSTLRTLELHSCEISMAWLHKQQDPTVLPLLECIVLDRVPAFRDEHLQGLTRFRALRSLVLGGTYRVTETGLDAGLQELSYLQRLEVLGCTLSADSTLLAISRHLRDVRKIRLTVRGLSAPGLAVLEGMPALESLCLQGPLVTPEMPSPTEILSSCLTMPKLRVLELQGLGWEGQEAEKILCKGLPHCMVIVRACPKESMDWWM [FBXL12]; -0.129
MDSSAVITQISKEEARGPLRGKGDQKSAASQKPRSRGILHSLFCCVCRDDGEALPAHSGAPLLVEENGAIPKQTPVQYLLPEAKAQDSDKICVVIDLDETLVHSSFKPVNNADFIIPVEIDGVVHQVYVLKRPHVDEFLQRMGELFECVLFTASLAKYADPVADLLDKWGAFRARLFRESCVFHRGNYVKDLSRLGRDLRRVLILDNSPASYVFHPDNAVPVASWFDNMSDTELHDLLPFFEQLSRVDDVYSVLRQPRPGS [CTDSP1]; -0.148
MSLNPPIFLKRSEENSSKFVETKQSQTTSIASEDPLQNLCLASQEVLQKAQQSGRSKCLKCGGSRMFYCYTCYVPVENVPIEQIPLVKLPLKIDIIKHPNETDGKSTAIHAKLLAPEFVNIYTYPCIPEYEEKDHEVALIFPGPQSISIKDISFHLQKRIQNNVRGKNDDPDKPSFKRKRTEEQEFCDLNDSKCKGTTLKKIIFIDSTWNQTNKIFTDERLQGLLQVELKTRKTCFWRHQKGKPDTFLSTIEAIYYFLVDYHTDILKEKYRGQYDNLLFFYSFMYQLIKNAKCSGDKETGKLTH [DTWD1]; 0.19
MNWELLLWLLVLCALLLLLVQLLRFLRADGDLTLLWAEWQGRRPEWELTDMVVWVTGASSGIGEELAYQLSKLGVSLVLSARRVHELERVKRRCLENGNLKEKDILVLPLDLTDTGSHEAATKAVLQEFGRIDILVNNGGMSQRSLCMDTSLDVYRKLIELNYLGTVSLTKCVLPHMIERKQGKIVTVNSILGIISVPLSIGYCASKHALRGFFNGLRTELATYPGIIVSNICPGPVQSNIVENSLAGEVTKTIGNNGDQSHKMTTSRCVRLMLISMANDLKEVWISEQPFLLVTYLWQYMPTWAWWITNKMGKKRIENFKSGVDADSSYFKIFKTKHD [DHRS7]; -0.297
MALGLKCFRMVHPTFRNYLAASIRPVSEVTLKTVHERQHGHRQYMAYSAVPVRHFATKKAKAKGKGQSQTRVNINAALVEDIINLEEVNEEMKSVIEALKDNFNKTLNIRTSPGSLDKIAVVTADGKLALNQISQISMKSPQLILVNMASFPECTAAAIKAIRESGMNLNPEVEGTLIRVPIPQVTREHREMLVKLAKQNTNKAKDSLRKVRTNSMNKLKKSKDTVSEDTIRLIEKQISQMADDTVAELDRHLAVKTKELLG [MRRF]; 0.605
